FYI, the data here is from the supplement of paper PMC10567573.

B1: KCNG1 (parent)
chain: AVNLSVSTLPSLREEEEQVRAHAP

Variants of: B1
Test protocol: protein stability index of a GFP-peptide fusion (GPS, HEK-293T) (PSI 1-6); higher = more stable;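 note: lentivirally expressed fusions sorted by FACS into six bins by GFP to DsRed ratio, PSI derived from sequencing read proportions per bin multiplied by bin number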
Applied conditions: c terminus: a fixed tail appended
Readout type: protein stability index
// no unit, no text: just the number

Given the variant AVNLSVWTLPSLREEEEQVRAHAP [S7W] , what is its reported protein stability index?
3.68

Same thing, different variant: AVNLSVSTLPSLRMEEEQVRAHAP [E14M]
4.11

Same thing, different variant: AVNLSVSTLPSLREEIEQVRAHAP [E16I]
3.27

Same thing, different variant: AVNLSVSTLPSLREEEEQVFAHAP [R20F]
4.48

Same thing, different variant: AVNLSVSTLPSLREEHEQVRAHAP [E16H]
4.49

Same thing, different variant: AVNLSVSTLPSLREEEEQVLAHAP [R20L]
5.37

Same thing, different variant: AVNLSVSTLPSLHEEEEQVRAHAP [R13H]
4.99
